System: EpCAM
EXPERIMENTAL PROTOCOL: Spot phage ELISA, EpCAM
Assay type: binding, human
REPORTED CONDITIONS: spot phage ELISA signal-to-noise on EpCAM
Where no end group is shown, it is not given here.
Listed below: S/N values for each entry.
Write no unit; give the number alone.

Enquiry: Return S/N for the following sequence: GPTQSHYGQCGGSGYYGYIVCSGTTCQFKPSGRSQCLPGAS (disulfide (positions not given here)) [EpCAM CBD 81]
Return: 7.0

Enquiry: Return S/N for the following sequence: GPTQSHYGQCGGSGYYGVIVCSGTTCQYVNRKPSQCLPGAS (disulfide (positions not given here)) [EpCAM CBD 36]
Return: 13.1

Enquiry: Return S/N for the following sequence: GPTQSHYGQCGGKGYHGFIRCSGTTCQVVYPEKSQCLPGAS (disulfide (positions not given here)) [EpCAM CBD 58]
Return: 9.2

Enquiry: Return S/N for the following sequence: GCPRILMRCKQDSDCLCGCV (disulfide (positions not given here)) [EpCAM EET I-II 11]
Return: 21.4

Enquiry: Return S/N for the following sequence: GCPRILMRCKQDSDCQAVCG (disulfide (positions not given here)) [EpCAM EET I-II 27]
Return: 18.1

Enquiry: Return S/N for the following sequence: GPTQSHYGQCGGSGYWGAIACSGTTCQMVKLPYSQCLPGAS (disulfide (positions not given here)) [EpCAM CBD 69]
Return: 8.5

Cited source: paper PMC10977697
